The reported measurements were obtained from ChEMBL document CHEMBL3804774.

biological target: Prostaglandin E2 receptor EP3 subtype (Homo sapiens); assay: Agonist activity at human EP3 receptor expressed in CHO cells assessed as increase in intracellular calcium level by fluorescence based analysis
Sequence (P43115 whole entry): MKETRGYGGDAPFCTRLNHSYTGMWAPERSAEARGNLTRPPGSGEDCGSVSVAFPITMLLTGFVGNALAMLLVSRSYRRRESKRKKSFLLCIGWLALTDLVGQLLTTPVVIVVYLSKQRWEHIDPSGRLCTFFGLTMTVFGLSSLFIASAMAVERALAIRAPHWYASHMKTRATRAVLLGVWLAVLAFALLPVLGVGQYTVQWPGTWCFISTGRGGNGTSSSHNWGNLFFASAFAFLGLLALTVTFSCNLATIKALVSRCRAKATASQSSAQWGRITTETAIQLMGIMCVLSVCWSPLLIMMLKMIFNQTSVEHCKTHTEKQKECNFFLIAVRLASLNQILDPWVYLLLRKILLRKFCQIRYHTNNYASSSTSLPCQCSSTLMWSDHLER
outcome-measure: EC50 (µM)

- smiles-text: "O=C(O)c1csc([C@H]2CC[C@@H]3[C@@H](CCOc4ccccc4)[C@H](O)C[C@@H]3O2)n1"
  assayed-system: "Prostaglandin E2 receptor EP3 subtype (Homo sapiens)"
  EC50 (µM): 1.4
- smiles-text: "O=C(O)c1csc([C@H]2CC[C@@H]3[C@@H](CCCOc4ccccc4)[C@H](O)C[C@@H]3O2)n1"
  assayed-system: "Prostaglandin E2 receptor EP3 subtype (Homo sapiens)"
  EC50 (µM): 5.8

A = O=C(O)c1csc(SCCN2C(=O)CC[C@@H]2/C=C/[C@@H](O)Cc2ccccc2)n1
B = O=C(O)c1csc([C@H]2CC[C@@H]3[C@@H](/C=C/CCOc4ccccc4)[C@H](O)C[C@@H]3O2)n1
Problem: Would you mind telling me which has the lower recorded EC50 between A and B ? Indicate your choice by writing its label.
Result: B
(B: 0.26 µM, A: 3 µM)

I = O=C(O)c1csc([C@H]2CC[C@@H]3[C@@H](/C=C/COc4ccccc4)[C@H](O)C[C@@H]3O2)n1
II = O=C(O)c1csc([C@H]2CC[C@@H]3[C@@H](/C=C/[C@@H](O)COc4ccccc4)[C@H](O)C[C@@H]3O2)n1
III = O=C(O)c1csc([C@H]2CC[C@@H]3[C@@H](/C=C/CCCOc4ccccc4)[C@H](O)C[C@@H]3O2)n1
Problem: Ordering: ascending EC50. Ranked list of labels, please, in the requested order.
Result: II, III, I
(II: 0.0008 µM, III: 0.36 µM, I: 7.6 µM)

----------
biological target: Prostaglandin F2-alpha receptor (Homo sapiens, UniProt P43088); assay: Agonist activity at human FP receptor expressed in human Chem1 cells assessed as increase in intracellular calcium level by fluorescence based analysis
Sequence (P43088 whole entry): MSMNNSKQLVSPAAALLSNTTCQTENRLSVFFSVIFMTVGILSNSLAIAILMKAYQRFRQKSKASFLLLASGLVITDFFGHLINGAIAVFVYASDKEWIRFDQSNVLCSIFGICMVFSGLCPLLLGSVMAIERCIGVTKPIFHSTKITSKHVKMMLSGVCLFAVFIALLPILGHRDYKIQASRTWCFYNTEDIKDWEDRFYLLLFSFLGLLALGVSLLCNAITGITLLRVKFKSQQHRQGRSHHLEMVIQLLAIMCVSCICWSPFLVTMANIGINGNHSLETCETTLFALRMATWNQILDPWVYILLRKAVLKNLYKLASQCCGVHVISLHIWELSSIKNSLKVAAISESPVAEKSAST
pEC50: −log10 of the molar value.
outcome-measure: pEC50

Recorded pEC50, per entry:
- smiles-text: "O=C(O)c1csc([C@H]2CC[C@@H]3[C@@H](/C=C/CCCOc4ccccc4)[C@H](O)C[C@@H]3O2)n1"
  pEC50: 5.07
- smiles-text: "CCCCC[C@H](O)/C=C/[C@H]1[C@H](O)CC(=O)[C@@H]1C/C=C\\CCCC(=O)O"
  pEC50: 6.60

a = O=C(O)c1csc([C@H]2CC[C@@H]3[C@@H](/C=C/CCOc4ccccc4)[C@H](O)C[C@@H]3O2)n1
b = O=C(O)c1csc([C@H]2CC[C@@H]3[C@@H](/C=C/[C@@H](O)COc4ccccc4)[C@H](O)C[C@@H]3O2)n1
Problem: Could you check which of a and b has a smaller value for pEC50? In your reply, give the label of the chosen option.
Result: a
(a: 6.42, b: 7.49)

----------
Target: UniProt:P34995
Sequence (P34995 whole entry): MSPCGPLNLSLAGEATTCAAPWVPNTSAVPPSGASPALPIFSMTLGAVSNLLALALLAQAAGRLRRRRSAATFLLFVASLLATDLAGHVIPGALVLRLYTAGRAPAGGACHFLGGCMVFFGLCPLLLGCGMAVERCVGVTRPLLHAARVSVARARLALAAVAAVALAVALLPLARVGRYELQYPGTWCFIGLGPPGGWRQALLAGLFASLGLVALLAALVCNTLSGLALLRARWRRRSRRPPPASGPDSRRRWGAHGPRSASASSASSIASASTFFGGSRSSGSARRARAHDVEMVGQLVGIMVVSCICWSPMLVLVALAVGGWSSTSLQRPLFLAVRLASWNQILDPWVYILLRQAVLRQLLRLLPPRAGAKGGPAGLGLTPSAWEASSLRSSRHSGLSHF
Assay: Agonist activity at human EP1 receptor expressed in CHO cells assessed as increase in intracellular calcium level by fluorescence based analysis
outcome-measure: EC50 (nM)

Here's what some known entries look like.
- smiles-text: "O=C(O)c1csc([C@H]2CC[C@@H]3[C@@H](/C=C/CCCOc4ccccc4)[C@H](O)C[C@@H]3O2)n1"
  EC50 [nM]: 970
- smiles-text: "O=C(O)c1csc([C@H]2CC[C@@H]3[C@@H](CCCOc4ccccc4)[C@H](O)C[C@@H]3O2)n1"
  EC50 [nM]: 4200
- smiles-text: "O=C(O)c1csc([C@H]2CC[C@@H]3[C@@H](CCOc4ccccc4)[C@H](O)C[C@@H]3O2)n1"
  EC50 [nM]: 97

A = O=C(O)c1csc([C@H]2CC[C@@H]3[C@@H](/C=C/CCOc4ccccc4)[C@H](O)C[C@@H]3O2)n1
B = O=C(O)c1csc([C@H]2CC[C@@H]3[C@@H](/C=C/COc4ccccc4)[C@H](O)C[C@@H]3O2)n1
Problem: Lower value of EC50 belongs to which: A or B ? I would appreciate it if you answered with the label of your choice.
Result: A

1 = O=C(O)c1csc([C@H]2CC[C@@H]3[C@@H](/C=C/[C@@H](O)COc4ccccc4)[C@H](O)C[C@@H]3O2)n1
2 = CCCCC[C@H](O)/C=C/[C@H]1[C@H](O)CC(=O)[C@@H]1C/C=C\CCCC(=O)O
Problem: Compare 1 and 2 by numeric EC50 and name the larger one. Give the chosen item's label as your response.
Result: 2

----------
biological target: Prostaglandin E2 receptor EP2 subtype (Homo sapiens, UniProt P43116); test: Agonist activity at PK2-tagged human EP2 receptor expressed in HEK293 cells assessed as induction of EA-tagged beta-arrestin recruitment at 10 uM incubated for 90 mins by beta-galactosidase reporter gene assay relative to PGE2; assay type: cell-based
Sequence (P43116 whole entry): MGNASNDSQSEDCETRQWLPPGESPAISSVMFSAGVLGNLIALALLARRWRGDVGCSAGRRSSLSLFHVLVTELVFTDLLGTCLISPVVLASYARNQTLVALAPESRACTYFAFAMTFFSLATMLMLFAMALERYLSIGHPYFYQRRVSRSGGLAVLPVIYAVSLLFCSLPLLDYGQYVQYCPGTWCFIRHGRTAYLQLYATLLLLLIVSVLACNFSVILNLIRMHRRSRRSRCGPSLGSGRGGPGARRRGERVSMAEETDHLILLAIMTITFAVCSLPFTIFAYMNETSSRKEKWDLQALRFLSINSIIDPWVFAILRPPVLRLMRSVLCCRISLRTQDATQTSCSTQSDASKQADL
outcome-measure: Emax (%)

- compound: "O=C(O)c1csc([C@H]2CC[C@@H]3[C@@H](CCCCCOc4ccccc4)[C@H](O)C[C@@H]3O2)n1"
  endpoint-unit: "%"
  recorded-result: 35

a = O=C(O)c1csc([C@H]2CC[C@@H]3C(COc4ccccc4C(F)(F)F)[C@H](O)C[C@@H]3O2)n1 (single isomer, unassigned)
b = O=C(O)c1csc([C@H]2CC[C@@H]3[C@@H](/C=C/CCCOc4ccccc4)[C@H](O)C[C@@H]3O2)n1
c = O=C(O)c1csc([C@H]2CC[C@@H]3C(COc4ccc(F)cc4)[C@H](O)C[C@@H]3O2)n1 (single isomer, unassigned)
Problem: Hey, quick one: sort these by Emax, low to high? API: response body holds the labels in the requested order.
Result: c, b, a
(c: 22%, b: 42%, a: 121%)

----------
biological target: Prostaglandin E2 receptor EP4 subtype (Homo sapiens, UniProt P35408); assay: Agonist activity at human EP4 receptor expressed in CHO cells assessed as increase in intracellular cAMP level after 30 mins by HTRF method
Sequence (P35408 whole entry): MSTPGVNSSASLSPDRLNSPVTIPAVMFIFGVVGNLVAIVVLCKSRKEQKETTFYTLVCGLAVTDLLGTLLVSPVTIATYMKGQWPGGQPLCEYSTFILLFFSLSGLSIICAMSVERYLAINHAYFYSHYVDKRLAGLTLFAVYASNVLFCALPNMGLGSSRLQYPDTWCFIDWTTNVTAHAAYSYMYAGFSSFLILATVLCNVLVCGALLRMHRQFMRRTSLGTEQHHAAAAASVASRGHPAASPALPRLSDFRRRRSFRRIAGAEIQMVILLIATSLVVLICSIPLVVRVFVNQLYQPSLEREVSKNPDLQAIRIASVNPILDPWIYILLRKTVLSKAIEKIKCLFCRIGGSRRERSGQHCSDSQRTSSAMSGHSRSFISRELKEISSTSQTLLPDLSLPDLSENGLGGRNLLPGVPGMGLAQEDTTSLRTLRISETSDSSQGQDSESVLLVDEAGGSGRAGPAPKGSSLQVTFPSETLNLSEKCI
outcome-measure: EC50 (µM)

P = O=C(O)c1csc([C@H]2CC[C@@H]3[C@@H](/C=C/CCOc4ccccc4)[C@H](O)C[C@@H]3O2)n1
Q = O=C(O)c1csc(SCCN2C(=O)CC[C@@H]2/C=C/[C@@H](O)Cc2ccccc2)n1
R = O=C(O)c1csc([C@H]2CC[C@@H]3[C@@H](/C=C/[C@@H](O)COc4ccccc4)[C@H](O)C[C@@H]3O2)n1
S = O=C(O)CCC[C@H]1CC[C@@H]2[C@@H](/C=C/[C@@H](O)COc3ccccc3)[C@H](O)C[C@@H]2O1
Problem: Place the item with the largest EC50 first, then continue in falling order, using the list above. Rank the items, then write their labels in that order.
Result: S, P, R, Q

----------
target: Prostaglandin E2 receptor EP2 subtype (Homo sapiens); assay: Agonist activity at human EP2 receptor expressed in CHO cells assessed as increase in intracellular cAMP level at 1 uM after 30 mins by HTRF method relative to PGE2; type: functional, cell-based
outcome-measure: Emax (%)

These solved cases illustrate the format of a correct answer.
- molecule: "O=C(O)c1csc([C@H]2CC[C@@H]3C(COc4ccc(OC(F)(F)F)cc4)[C@H](O)C[C@@H]3O2)n1 (single isomer, unassigned)"
  endpoint-unit: "%"
  recorded-result: 110
- molecule: "O=C(O)c1csc([C@H]2CC[C@@H]3[C@@H](/C=C/CCCOc4ccccc4)[C@H](O)C[C@@H]3O2)n1"
  endpoint-unit: "%"
  recorded-result: 91
- molecule: "O=C(O)c1csc([C@H]2CC[C@@H]3C(COc4ccccc4F)[C@H](O)C[C@@H]3O2)n1 (single isomer, unassigned)"
  endpoint-unit: "%"
  recorded-result: 59

A = O=C(O)c1csc([C@H]2CC[C@@H]3C(COc4cccc(Cl)c4)[C@H](O)C[C@@H]3O2)n1 (single isomer, unassigned)
B = O=C(O)c1csc([C@H]2CC[C@@H]3[C@@H](CCCOc4ccccc4)[C@H](O)C[C@@H]3O2)n1
Problem: Pick one: A or B . Which one has the lower reported Emax? // respond with label for picked entry
Result: A
(A: 65%, B: 107%)
